A compilation of published pKi results with MAP kinase-interacting serine/threonine-protein kinase 1 (Homo sapiens, UniProt Q9BUB5).
Sequence (Q9BUB5 whole entry): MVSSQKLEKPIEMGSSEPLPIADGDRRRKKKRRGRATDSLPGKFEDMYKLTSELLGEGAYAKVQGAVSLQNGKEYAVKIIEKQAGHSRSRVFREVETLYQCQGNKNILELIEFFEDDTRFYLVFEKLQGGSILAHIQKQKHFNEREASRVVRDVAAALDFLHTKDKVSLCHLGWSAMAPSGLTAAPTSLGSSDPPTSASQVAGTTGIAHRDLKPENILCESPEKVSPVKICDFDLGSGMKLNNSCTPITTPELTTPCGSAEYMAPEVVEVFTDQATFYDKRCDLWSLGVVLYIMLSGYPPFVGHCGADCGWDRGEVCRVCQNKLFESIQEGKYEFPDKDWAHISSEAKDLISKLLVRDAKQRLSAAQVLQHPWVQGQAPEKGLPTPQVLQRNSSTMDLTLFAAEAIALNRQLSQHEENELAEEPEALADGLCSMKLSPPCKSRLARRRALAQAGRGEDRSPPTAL
Remember the convention: pKi equals -log10 of concentration in molar.

Q: Please state recorded pKi (tested on MAP kinase-interacting serine/threonine-protein kinase 1 (Homo sapiens, UniProt Q9BUB5)) of Cc1c(C(N)=O)sc2ncnc(Nc3ccc(=O)n(C)c3)c12
A: 5.35

Q: Please state recorded pKi (tested on MAP kinase-interacting serine/threonine-protein kinase 1 (Homo sapiens, UniProt Q9BUB5)) of COCCn1cc(C)cc(Nc2ncnc3sc(C(=O)O)c(C)c23)c1=O
A: 5.69

Q: Please state recorded pKi (tested on MAP kinase-interacting serine/threonine-protein kinase 1 (Homo sapiens, UniProt Q9BUB5)) of Fc1ccc(Nc2ncnc3[nH]ccc23)nc1
A: 5.97

Q: Please state recorded pKi (tested on MAP kinase-interacting serine/threonine-protein kinase 1 (Homo sapiens, UniProt Q9BUB5)) of Nc1cccc2c1cnn2-c1ncnc2[nH]ccc12
A: 6.82

Q: Please state recorded pKi (tested on MAP kinase-interacting serine/threonine-protein kinase 1 (Homo sapiens, UniProt Q9BUB5)) of Cc1cc(Nc2ncnc3sc(C(=O)O)c(C)c23)c(=O)n(C)c1
A: 5.32

Continuing:
Q: Please state recorded pKi (tested on MAP kinase-interacting serine/threonine-protein kinase 1 (Homo sapiens, UniProt Q9BUB5)) of COc1ncc(C)cc1Nc1ncnc2[nH]ccc12
A: 6.13

Q: Please state recorded pKi (tested on MAP kinase-interacting serine/threonine-protein kinase 1 (Homo sapiens, UniProt Q9BUB5)) of Cc1c(C(=O)O)sc2ncnc(Nc3ccc(=O)n(C)c3)c12
A: 5.67
